experiment: Pharmacokinetic test of pharmaceutical preparations in rats; format: in vivo; conditions: both sexes, rat, po, fasted, gavage, 20 mg/kg of compound of Formula (1), plasma, LC-MS/MS
Experimental endpoint: Cmax (ng/mL)
Numbers only here, please. The scale is ng/mL.

[ask] Tell me the measured Cmax of C=CC(=O)N(C)c1cc(Nc2ncc(Cl)c(NCCCNC(=O)c3ccc(C#N)cc3)n2)ccc1F [Compound of Formula (1)] , please.
[reply] 243

---

test: Pharmacokinetic test of pharmaceutical preparations in rats; format: in vivo; settings: both sexes, rat, po, fasted, gavage, 20 mg/kg of compound of Formula (1), plasma 0-8 h, LC-MS/MS
Experimental endpoint: AUC(0-t) (ng·h/mL)
Write the number in ng·h/mL without appending the unit.

[ask] Requested read-out: AUC(0-t). Entry: C=CC(=O)N(C)c1cc(Nc2ncc(Cl)c(NCCCNC(=O)c3ccc(C#N)cc3)n2)ccc1F [Compound of Formula (1)]
[reply] 235

---

test: Pharmacokinetic test of pharmaceutical preparations in beagle dogs; format: in vivo; conditions: po, fasted, gavage, 100 mg of compound of Formula (1) per dog, plasma 0-24 h, LC-MS/MS
Experimental endpoint: AUC(0-t) (µg·h/mL)
// units = µg·h/mL; emit number, no label

[ask] Entry under review: C=CC(=O)N(C)c1cc(Nc2ncc(Cl)c(NCCCNC(=O)c3ccc(C#N)cc3)n2)ccc1F [Compound of Formula (1)] . Reported AUC(0-t)?
[reply] 0.03

---

Assay: Pharmacokinetic test of compositions containing the compound of Formula (1) in rats
Format: in vivo
Settings: rat, po, fasted, gavage, 20 mg/kg of compound of Formula (1), plasma 0-8 h, LC-MS/MS
Description: Twenty-four healthy rats were selected and randomly divided into 4 groups, 6 rats per group, which were respectively compound of Formula (1), Example 3, Example 4 and Example 7. During the experiment, the rats were fasted overnight before administration, and blood was collected from the orbit before administration, and the plasma was separated, which was taken as the blood concentration sample at 0 h. […] The drug concentration in plasma was measured by LC-MS/MS.
Experimental endpoint: AUC(0-t) (ng·h/mL)
Field: numeric (ng·h/mL). Do not append units.

[ask] Entry under review: C=CC(=O)N(C)c1cc(Nc2ncc(Cl)c(NCCCNC(=O)c3ccc(C#N)cc3)n2)ccc1F [Compound of Formula (1)] . Reported AUC(0-t)?
[reply] 235

---

test: Pharmacokinetic test of pharmaceutical preparations in beagle dogs; format: in vivo; conditions: po, fasted, gavage, 100 mg of compound of Formula (1) per dog, plasma, LC-MS/MS
Experimental endpoint: half-life (min)
Lab book: enter the figure in min, no units written.

[ask] Quick one: half-life for C=CC(=O)N(C)c1cc(Nc2ncc(Cl)c(NCCCNC(=O)c3ccc(C#N)cc3)n2)ccc1F [Compound of Formula (1)] ?
[reply] 24

---

assay: Pharmacokinetic test of compositions containing the compound of Formula (1) in rats; type: in vivo; settings: rat, po, fasted, gavage, 20 mg/kg of compound of Formula (1), plasma, LC-MS/MS
Experimental endpoint: Cmax (ng/mL)
Express your answer in ng/mL, writing the number without its unit.

[ask] Bench note: what Cmax did C=CC(=O)N(C)c1cc(Nc2ncc(Cl)c(NCCCNC(=O)c3ccc(C#N)cc3)n2)ccc1F show?
[reply] 243
